Test system: BCRP
METHOD SUMMARY: cell batch quality control, BCRP-MDCK monolayers
Type: in vitro ADME
PROTOCOL CONDITIONS: dog; BCRP-MDCK cell batch QC; passage 23
REPORTED ENDPOINT: Papp B→A (×10⁻⁶ cm/s)
Report the value in ×10⁻⁶ cm/s with no unit label.

Exam item: API: value(readout=Papp B→A, system=BCRP) for record Nc1nc(Cl)nc2c1ncn2[C@H]1C[C@H](O)[C@@H](CO)O1
Marked response: 18.4

###

MEASUREMENT TARGET: CYP2C8 (Homo sapiens)
Sequence (P10632 whole entry): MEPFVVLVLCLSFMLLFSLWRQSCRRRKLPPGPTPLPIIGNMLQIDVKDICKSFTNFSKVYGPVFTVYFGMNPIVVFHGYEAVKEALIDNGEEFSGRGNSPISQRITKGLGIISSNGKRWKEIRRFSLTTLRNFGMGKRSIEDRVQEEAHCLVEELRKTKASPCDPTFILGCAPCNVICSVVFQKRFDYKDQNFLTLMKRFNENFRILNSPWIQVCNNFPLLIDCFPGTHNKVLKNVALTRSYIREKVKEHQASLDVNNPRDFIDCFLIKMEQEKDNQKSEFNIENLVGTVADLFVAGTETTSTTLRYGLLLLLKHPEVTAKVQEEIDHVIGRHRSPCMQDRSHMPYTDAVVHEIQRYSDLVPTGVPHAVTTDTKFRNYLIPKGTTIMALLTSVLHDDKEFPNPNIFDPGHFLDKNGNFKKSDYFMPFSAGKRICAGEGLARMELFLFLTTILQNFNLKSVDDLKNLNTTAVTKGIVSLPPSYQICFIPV
METHOD SUMMARY: in vitro
PROTOCOL CONDITIONS: both, microsomes, pH 7.4
REPORTED ENDPOINT: activity at 20 min, 3.33 µM (%)
Report the value in % with no unit label.

Exam item: Form field: reported activity at 20 min, 3.33 µM of CC(C)(O)c1ccccc1CC[C@@H](SCC1(CC(=O)O)CC1)c1cccc(/C=C/c2ccc3ccc(Cl)cc3n2)c1 [Montelukast, montelukast]
Marked response: 4.22

Reference source: patent US20230049952A1
